# Tested on: CEM-SS
# Test: Compound was tested for antiviral activity against the CEM-SS cell lines infected with HIV-1.
# Format: functional, cell-based
# Condition context: Homo sapiens
Test readout: EC50 (nM)
Write the answer as a number in nM, unit excluded.

Study these solved cases before continuing.
Nc1ncnc2c1ncn2CCOCP(=O)(OCCSSCCO)OCCSSCCO
2000
CC(C)(C)C(=O)SCCOP(=O)(COCCn1cnc2c(N)ncnc21)OCCSC(=O)C(C)(C)C
30
Nc1ncnc2c1ncn2CCOCP(=O)(OCCSC(=O)c1ccccc1)OCCSC(=O)c1ccccc1
50
CC(C)(C)C(=O)OCOP(=O)(COCCn1cnc2c(N)ncnc21)OCOC(=O)C(C)(C)C
40
CC(=O)SCCOP(=O)(COCCn1cnc2c(N)ncnc21)OCCSC(C)=O
100

Ask | Param request: EC50 | system CEM-SS | item Nc1ncnc2c1ncn2CCOCP(=O)(O)O
Reply | 420

Ask | Provide the reported EC50 (system: CEM-SS) for CC(C)C(=O)SCCOP(=O)(COCCn1cnc2c(N)ncnc21)OCCSC(=O)C(C)C
Reply | 90

###

# Test: Half-life in culture medium.
# Format: ADME
Label T for high-side half-life (at or above 40 h) and F for low-side half-life (below it).

Nc1ncnc2c1ncn2CCOCP(=O)(OCCSSCCO)OCCSSCCO
F
CC(C)(C)C(=O)SCCOP(=O)(COCCn1cnc2c(N)ncnc21)OCCSC(=O)C(C)(C)C
T
CC(C)C(=O)SCCOP(=O)(COCCn1cnc2c(N)ncnc21)OCCSC(=O)C(C)C
F
CC(C)(C)C(=O)SCCOP(=O)(O)COCCn1cnc2c(N)ncnc21
T
Nc1ncnc2c1ncn2CCOCP(=O)(OCCSC(=O)c1ccccc1)OCCSC(=O)c1ccccc1
F
CC(C)C(=O)SCCOP(=O)(O)COCCn1cnc2c(N)ncnc21
F
CC(=O)SCCOP(=O)(O)COCCn1cnc2c(N)ncnc21
F
CC(=O)SCCOP(=O)(COCCn1cnc2c(N)ncnc21)OCCSC(C)=O
F
Nc1ncnc2c1ncn2CCOCP(=O)(O)OCCSC(=O)c1ccccc1
T

With those in mind, consider the next compound.
Ask | Evaluate CC(C)(C)C(=O)OCOP(=O)(COCCn1cnc2c(N)ncnc21)OCOC(=O)C(C)(C)C : half-life at minimum 40 h?
Reply | F

###

# Test: Partition coefficient (logP)
# Assay type: physicochemical
# Condition context: octanol/water; read-out: logP
Test readout: logP
Give a plain numeric answer without units written out.

CC(=O)SCCOP(=O)(COCCn1cnc2c(N)ncnc21)OCCSC(C)=O
0.32

Ask | Supply reported logP belonging to this compound: CC(C)(C)C(=O)SCCOP(=O)(COCCn1cnc2c(N)ncnc21)OCCSC(=O)C(C)(C)C
Reply | 3.41

Ask | Please report logP for the following compound: Nc1ncnc2c1ncn2CCOCP(=O)(OCCSSCCO)OCCSSCCO
Reply | 0.21

Ask | For the compound CC(C)C(=O)SCCOP(=O)(COCCn1cnc2c(N)ncnc21)OCCSC(=O)C(C)C , give its reported logP.
Reply | 2.31

Ask | Give logP for CC(C)(C)C(=O)OCOP(=O)(COCCn1cnc2c(N)ncnc21)OCOC(=O)C(C)(C)C
Reply | 2.48

Ask | # return recorded logP for entry Nc1ncnc2c1ncn2CCOCP(=O)(OCCSC(=O)c1ccccc1)OCCSC(=O)c1ccccc1
Reply | 3.93

###

# Tested on: MRC5
# Test: Compound was tested for antiviral activity against the MRC-5 cells infected with HSV-2.
# Assay type: functional, cell-based
# Condition context: Homo sapiens
Test readout: EC50 (µM)
Note: unit µM is implicit; provide only the numeric part.

Ask | Fill in reported EC50 for this entry: Nc1ncnc2c1ncn2CCOCP(=O)(O)O
Reply | 33.5

Ask | Complete the entry with EC50 for CC(C)(C)C(=O)SCCOP(=O)(COCCn1cnc2c(N)ncnc21)OCCSC(=O)C(C)(C)C
Reply | 0.97

Ask | # return recorded EC50 for input CC(C)C(=O)SCCOP(=O)(COCCn1cnc2c(N)ncnc21)OCCSC(=O)C(C)C
Reply | 1.2

Ask | Determine its reported EC50: Nc1ncnc2c1ncn2CCOCP(=O)(OCCSC(=O)c1ccccc1)OCCSC(=O)c1ccccc1
Reply | 4.75

###

# Test: Percent decomposition in water at specified pH 7.2
# Condition context: buffer
Test readout: percent decomposition
Quote the value and follow it with the unit of measurement.

Some molecules with recorded percent decomposition:
CC(C)(C)C(=O)SCCOP(=O)(COCCn1cnc2c(N)ncnc21)OCCSC(=O)C(C)(C)C
3%
CC(C)(C)C(=O)OCOP(=O)(COCCn1cnc2c(N)ncnc21)OCOC(=O)C(C)(C)C [ADEFOVIR DIPIVOXIL]
32.7%
CC(=O)SCCOP(=O)(COCCn1cnc2c(N)ncnc21)OCCSC(C)=O
4%

Ask | Specify reported percent decomposition for the molecule shown: CC(C)C(=O)SCCOP(=O)(COCCn1cnc2c(N)ncnc21)OCCSC(=O)C(C)C
Reply | 1.6%

Ask | Using the record for Nc1ncnc2c1ncn2CCOCP(=O)(OCCSSCCO)OCCSSCCO , state its measured percent decomposition.
Reply | 13.9%

Ask | Identify measured percent decomposition associated with Nc1ncnc2c1ncn2CCOCP(=O)(OCCSC(=O)c1ccccc1)OCCSC(=O)c1ccccc1
Reply | 1.7%

###

# Tested on: MRC5
# Test: Compound was tested for antiviral activity against the MRC-5 cells infected with HSV-1.
# Type: functional
# Condition context: Homo sapiens
Rule: CC50 below 20 µM gives condition met, anything at or above gives condition not met.

Ask | Please determine if CC(C)(C)C(=O)OCOP(=O)(COCCn1cnc2c(N)ncnc21)OCOC(=O)C(C)(C)C [ADEFOVIR DIPIVOXIL] is below 20 µM in terms of CC50.
Reply | condition met

Ask | Quick check: does Nc1ncnc2c1ncn2CCOCP(=O)(O)O [ADEFOVIR] have CC50 under 20 µM?
Reply | condition not met

Ask | Dear colleague, could you confirm whether CC50 of CC(C)(C)C(=O)SCCOP(=O)(COCCn1cnc2c(N)ncnc21)OCCSC(=O)C(C)(C)C falls below 20 µM? Thanks.
Reply | condition not met

Ask | Take the compound Nc1ncnc2c1ncn2CCOCP(=O)(OCCSSCCO)OCCSSCCO and say whether its CC50 is less than 20 µM.
Reply | condition not met

Ask | Is CC50 of CC(C)C(=O)SCCOP(=O)(COCCn1cnc2c(N)ncnc21)OCCSC(=O)C(C)C strictly below 20 µM?
Reply | condition not met

Ask | Criterion: CC50 strictly below 20 µM. Is it met by CC(=O)SCCOP(=O)(COCCn1cnc2c(N)ncnc21)OCCSC(C)=O ?
Reply | condition not met

Ask | Please state whether CC50 is below 20 µM for Nc1ncnc2c1ncn2CCOCP(=O)(OCCSC(=O)c1ccccc1)OCCSC(=O)c1ccccc1
Reply | condition met

###

# Test: Half-life in RPMI1640 medium.
# Format: ADME
Test readout: half-life

Take a look at these entries with their results.
Nc1ncnc2c1ncn2CCOCP(=O)(OCCSSCCO)OCCSSCCO
> 24 h
CC(=O)SCCOP(=O)(COCCn1cnc2c(N)ncnc21)OCCSC(C)=O
> 24 h

Lab note: next compound to report on.
Ask | Annotate the compound CC(C)(C)C(=O)OCOP(=O)(COCCn1cnc2c(N)ncnc21)OCOC(=O)C(C)(C)C with its measured half-life.
Reply | 5 h

###

# Test system: MRC5
# Test: Compound was tested for antiviral activity against the MRC-5 cells infected with HSV-2.
# Format: functional, cell-based
# Condition context: Homo sapiens
Entries and their measured pEC50 follow.
Note: pEC50 values are expressed as the negative base-10 logarithm of concentration in M.

CC(=O)SCCOP(=O)(COCCn1cnc2c(N)ncnc21)OCCSC(C)=O
5.05
CC(C)(C)C(=O)OCOP(=O)(COCCn1cnc2c(N)ncnc21)OCOC(=O)C(C)(C)C [ADEFOVIR DIPIVOXIL]
6.04

Note: attention shifts to another entry.
Ask | For the compound Nc1ncnc2c1ncn2CCOCP(=O)(OCCSSCCO)OCCSSCCO , give its reported pEC50.
Reply | 4.58
